Each recorded value in this set is attributed to PubChem BioAssay AID1259343.

Experiment: Mycobacterium tuberculosis growth inhibition, primary screen (AID 1259343)
Condition description: at 10 µM
Out of some 6,200 compounds screened, about 2,900 (47%) were called active. Cut-off read from the data, not from the text of the source: active = inhibition above about 50%; inactive = the rest. So high a share suggests a set chosen from earlier hits. This is one part of the list.
Possible outcomes: active, inactive

1. Brc1ccc2cc(Oc3ncccn3)ccc2c1    inactive
2. Cc1nc(-n2nc(C3CC3)cc2NC(=O)c2ccccc2F)[nH]c(=O)c1C    inactive
3. Cc1cc(C)cc(NC(=O)CSc2ccc(-c3ccncc3)nn2)c1    active
4. Cc1cc(=O)[nH]c(-n2nc(C3CC3)cc2NC(=O)c2ccccc2C(F)(F)F)n1    active
5. CCCCCCOc1ccc(C(=O)NNS(=O)(=O)c2ccc(C(=O)OC)cc2)cc1    active
6. CCCCc1nnc(NC(=O)C2Cc3ccccc3S2)s1 (stereo unspecified)    active
7. CCCc1nnc(NC(=O)CC(=O)Nc2ccccc2C(=O)O)s1    inactive
8. Cc1cc(OCc2nc(C(=O)NCC(C)C)cs2)ccc1Cl    inactive
9. CC12CCC3C(=CCc4cc(O)ccc43)C1CCC2=O (stereo unspecified)    inactive
10. CC1CCN(C(=O)Nc2ccc(Br)cc2)CC1    inactive
11. Cc1nc(-n2nc(C3CC3)cc2NC(=O)c2ccccc2Cl)[nH]c(=O)c1C    active

###

Experiment: Mycobacterium tuberculosis growth inhibition, primary screen (AID 1259343)
Condition description: at 10 µM, hits give high values
Among all 6,200 compounds or so, about 2,900 (47%) were called active. The set was probably picked from earlier hits. Some of the results follow.
Decision: inhibition compared against 30%; not below it gives MET, below it gives NOT MET.

1. CCCC1C=CCN1C(=O)c1cc(COc2ccc3c(c2)OCO3)[nH]n1 (stereo unspecified)    MET
2. OC(C#Cc1ccccc1)c1ncc(-c2ccccc2)[nH]1 (stereo unspecified)    NOT MET
3. CCC1C=CCN1C(=O)c1cc(COc2ccc3sc(C)nc3c2)on1 (stereo unspecified)    MET
4. O=S1(=O)C(c2ccccc2)=CC1c1ccccc1 (stereo unspecified)    MET
5. CSC1(CNc2ccc(Br)cn2)CCOCC1    MET
6. O=c1[nH]cc(CNCc2ccccc2)c(=O)[nH]1    MET
7. O=C(CSc1ncc(-c2ccc([N+](=O)[O-])cc2)[nH]1)NC(C(=O)O)(c1ccccc1)c1ccccc1    NOT MET
8. C=CC[C@@H]1CC=C[C@@H](C)N1C(=O)c1cc(COc2ccc3sc(C)nc3c2)on1    NOT MET
9. CCCC1C=CCN1C(=O)c1cc(COc2ccc(C(C)=O)cc2)on1 (stereo unspecified)    MET

###

Experiment: Mycobacterium tuberculosis growth inhibition, primary screen (AID 1259343)
Condition description: at 10 µM
Among all 6,200 compounds or so, about 2,900 (47%) were called active. Rule as the data show it: active = inhibition above about 50%; inactive = the rest. The set was probably picked from earlier hits. Some of the results follow.
Labels: active, inactive

1. CCC(C)(C)NC(=O)COC(=O)c1ccc(-c2ccc(O)cc2)cc1    active
2. CSc1nsc(SC)c1NC(=O)OC1CCCCC1    inactive
3. Cc1cc(C(=O)N2CC=C(c3ccc(O)cc3)CC2)c(C)o1    inactive
4. CSc1nc2c(c(-c3ccc(O)cc3)c1C#N)CCC2    inactive
5. COc1cccc(Cc2nsc(Oc3ccc(CC(=O)O)cc3)n2)c1    active
6. CCn1cc(NC(=O)c2cc3ccc(C(C)(C)C)cc3[nH]2)ccc1=O    inactive
7. Cc1cc(NC(=O)Cc2cc(-c3ccc4c(c3)CC(C)O4)on2)no1 (stereo unspecified)    inactive
8. CCSc1nc2c(c(C3CC=CCC3)c1C#N)CCC2 (stereo unspecified)    inactive
9. CC1(C(=O)Nc2nc(-c3cccc(Cl)c3)ns2)CCOCC1    active
10. CCC(C)(C)NC(=O)c1ccc2c(c1)S(=O)(=O)c1ccccc1C2=O    inactive
11. Cc1sc(C(=O)N2CCOC(C(N)=O)C2)cc1-c1ccc(F)cc1 (stereo unspecified)    inactive

###

Experiment: Mycobacterium tuberculosis growth inhibition, primary screen (AID 1259343)
Condition description: at 10 µM, hits give high values
Screen size: about 6,200 compounds; about 2,900 (47%) were called active. The set was probably picked from earlier hits. Some of the results follow.
Classify by inhibition. Ranges: class A = under 30%, class B = from 30% up to 80%, class C = 80% and over

1) CC(C)c1ccc(NC=C2C(=O)OC(C)(C)OC2=O)cc1    class C
2) C=CCSc1nnc(-c2cc(Br)ccc2N)c(=O)[nH]1    class B
3) CC(C)c1nnc2sc(C3CCc4ccccc4C3)nn12 (configuration not stated)    class B
4) CC1(C)OC(=O)C(=CNc2ccc3ccccc3c2)C(=O)O1    class A
5) CN(c1ccc(C(N)=O)nn1)C1CCc2ccccc2C1 (configuration not stated)    class B
6) CC(=O)/C(=N/Nc1ccc(C)cc1)N1CCOCC1    class C
7) c1ccc(OCCSc2nnc3sc4ccccc4n23)cc1    class B
8) Nc1nnc(SCC(=O)c2ccc(OCc3ccccc3)cc2)s1    class C
9) c1ccc(-c2nc(SC(c3ccccc3)c3ccccc3)n[nH]2)cc1    class A
10) Cc1ccc(-c2nnc(-c3ccccc3N)[nH]c2=O)cc1C    class B

###

Experiment: Mycobacterium tuberculosis growth inhibition, primary screen (AID 1259343)
Condition description: at 10 µM, hits give high values
Among all 6,200 compounds or so, about 2,900 (47%) were called active. So high a share suggests a set chosen from earlier hits. The list shows a part of the results.
Classify by inhibition. Ranges: low: < 30%; middle: ≥ 30% and < 70%; high: ≥ 70%

1. CC1(C(=O)Nc2ccc(F)c(-n3cccc3)c2)CCOCC1    middle
2. O=C(CC1CCS(=O)(=O)C1)Nc1ccc(F)c(-n2cccc2)c1 (configuration not stated)    middle
3. O=S(=O)(Nc1ccc(Br)c(C(F)(F)F)c1)c1ccc(F)cc1    high
4. CC(=O)Nc1ccc(-c2csc(NC(=O)C3Cc4ccccc4O3)n2)c(F)c1 (configuration not stated)    low
5. O=C(CC1CCCCC1)NCc1ccn(-c2ccccc2F)n1    low
6. Cc1cc(C)c(C)c(S(=O)(=O)Nc2ccc(F)cc2)c1C    middle
7. O=C(COc1c(F)c(F)cc(F)c1F)c1ccc[nH]1    middle
8. Cc1ccc2cccc(OCCCOc3ccc(C)c(C)c3)c2n1    low
9. N#Cc1ccc(NS(=O)(=O)c2ccc(F)cc2)cc1    high
10. O=C(CC1CCCC1)Nc1ccc(S(=O)(=O)C(F)F)cc1    low
11. CCCCOc1ccc(NC(=O)CC2CCCC2)cn1    high

###

Experiment: Mycobacterium tuberculosis growth inhibition, primary screen (AID 1259343)
Condition description: at 10 µM, hits give high values
About 2,900 (47%) of roughly 6,200 compounds were called active. The set was probably picked from earlier hits. The list shows a part of the results.
Assay endpoint: inhibition (%)

1) CCOC(=O)c1c(C)[nH]c(C(=O)OCC(=O)C23CC4CC(CC(C4)C2)C3)c1C    -59.8
2) Cc1[nH]c2ccccc2c1N=Nc1ccc(SC(F)F)cc1    58.3
3) Cc1nn(C(=O)C(C)N2C(=O)c3ccccc3C2=O)c(C)c1Br (centres undefined)    14.3
4) Cc1[nH]c2ccccc2c1N=Nc1ccc(F)cc1    11.2
5) Cc1ccnc(N2CCN(c3ncnc4scc(-c5ccc(F)cc5)c34)CC2)c1    3.93
6) O=C(Nc1cc(F)c(N2CCCC2)c(F)c1)C1CC1c1cccnc1 (centres undefined)    32.7
7) CC(C)(C)C(=O)Nc1nc(CC23CC4CC(CC(C4)C2)C3)cs1    38
8) CC(=O)Nc1cc(C)nn1-c1nc(C)cc(=O)[nH]1    100
9) O=c1ccc(-c2cccc(Br)c2)nn1Cc1ccc(F)cc1    8.75
10) CNS(=O)(=O)c1ccc2c(c1)CCN2C(=O)c1ccc(F)cc1F    32
11) CCOC(=O)c1c(C)[nH]c(N=Nc2ccc3c(c2)OCO3)c1C    104
12) CC(C)COc1ccc(NC(=O)c2ccnnc2)cc1Cl    50.1
13) Cc1sc(NC(=O)C2CC2)c(C(=O)N2CCc3ccccc32)c1C    -6.91
14) Cc1[nH]c2ccccc2c1N=Nc1ccc2c(c1)OCO2    89.7
15) Cc1cc(C(=O)Nc2nc(C(C)(C)C)cs2)c(C)o1    60.2
16) Cc1[nH]c2ccccc2c1N=Nc1cccc2ccccc12    -9.25
17) CCOC(=O)c1c(C)[nH]c(C(=O)CSc2ncn[nH]2)c1C    -1.94
18) Cc1cc(=O)[nH]c(-n2nc(C)cc2NC(=O)c2snnc2C)n1    99.6
19) Cc1ccc(C2=NNC(=NCc3ccc4c(c3)OCO4)SC2)s1    18.8
20) C/C=C/C(=O)Nc1cc(C)nn1-c1nc(C)cc(=O)[nH]1    101
21) NC(=S)Nc1cccc(Br)c1    32.7
22) Fc1ccccc1CON=C1CCN(c2ncccn2)CC1    83.5
23) CCc1nc2sc3c(NCC4CCCO4)ncnc3c2c2c1CCCC2 (centres undefined)    57.2
24) Cc1cc(=O)[nH]c(-n2nc(C)cc2NC(=O)C(C)C)n1    100
